B1: VH:VL chains; a variant is named by its letters at X, in order (parent)
chain 1: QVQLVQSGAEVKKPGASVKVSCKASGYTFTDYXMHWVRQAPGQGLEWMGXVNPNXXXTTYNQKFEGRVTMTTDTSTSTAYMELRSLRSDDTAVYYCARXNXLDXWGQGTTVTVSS
chain 2: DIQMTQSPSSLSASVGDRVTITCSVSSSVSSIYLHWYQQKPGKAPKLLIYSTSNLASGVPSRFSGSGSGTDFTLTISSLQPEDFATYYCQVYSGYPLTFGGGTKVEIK

variants of: B1; assay: yeast display scFab, FACS + sequencing
measured_property: non-specific binding call

YGGRADVY	no binding
YTRGASGA	no binding
YAARGSAA	binds
YRRGGAWV	binds
YKERDVGV	binds
DAKEGAAA	no binding

**Q:** Bench note: what non-specific binding call did "YRKGAALA" show?
**A:** binds

**Q:** Bench note: what non-specific binding call did "FRREGSSD" show?
**A:** binds

**Q:** Bench note: what non-specific binding call did "YRRRGSAF" show?
**A:** binds

**Q:** Bench note: what non-specific binding call did "VRERGDAS" show?
**A:** binds

**Q:** Bench note: what non-specific binding call did "YRKESAVY" show?
**A:** binds

**Q:** Bench note: what non-specific binding call did "YARRDVGA" show?
**A:** binds

**Q:** Bench note: what non-specific binding call did "STGGDDVY" show?
**A:** no binding

**Q:** Bench note: what non-specific binding call did "VKERGDGV" show?
**A:** no binding

**Q:** Bench note: what non-specific binding call did "FAEGSYAF" show?
**A:** binds

**Q:** Bench note: what non-specific binding call did "AARADSAD" show?
**A:** no binding

**Q:** Bench note: what non-specific binding call did "DKEGGSLD" show?
**A:** no binding
